test-protocol: CCTE_Shafer_MEA_dev_network_spike_number: CCTE's Neural Network Formation Assay for Number of Network Spikes, Shafer Lab (AID 2284048);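 further: synchronized bursts across electrodes counted on days 5 7 9 12 and integrated as AUC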
Activity calls are given as the source filed them. How the source made its calls: active means hit-call score of the fitted dose curve at least 0.9, where 1 is the maximum; inactive means score below 0.9.
Can you answer with just one of these options? 1 for active, 0 for inactive

COc1ccc(C(c2ccc(OC)cc2)C(Cl)(Cl)Cl)cc1 = 0
CCOc1cc(Oc2ccc(C(F)(F)F)cc2Cl)ccc1[N+](=O)[O-] = 1
COP(=S)(OC)Oc1nc(Cl)c(Cl)cc1Cl = 0
C=CC1(C)OC(=O)N(c2cc(Cl)cc(Cl)c2)C1=O (stereo not drawn) = 0
N#Cc1nn(-c2c(Cl)cc(C(F)(F)F)cc2Cl)c(N)c1S(=O)C(F)(F)F (stereo not drawn) = 0

Answer briefly: the call reported for `CNC(=O)ON=CC(C)(C)SC` in this assay.
0

Answer briefly: the call reported for Cc1c(F)c(F)c(COC(=O)C2C(/C=C(\Cl)C(F)(F)F)C2(C)C)c(F)c1F (stereo not drawn) in this assay.
1

Answer briefly: the call reported for `CN(C)C(=S)SSC(=S)N(C)C` in this assay.
1
